- Tested on: Haemophilus parainfluenzae
- experimental details: growth AUC normalised to DMSO control (fraction of control); higher = less growth inhibition, active = hit call of the paper
- condition label: 20 µM
Structures can show the parent of a compound that is named as a salt.
growth AUC normalised to DMSO control reference
Answer field: number only, no words.

CCCCC1(COC(=O)CCC(=O)O)C(=O)N(c2ccccc2)N(c2ccccc2)C1=O | 0.995
CN1CCOC(c2ccccc2)c2ccccc2C1 (stereo not given) [Nefopam hydrochloride] | 1
CN(C)CCCN1c2ccccc2Sc2ccc(Cl)cc21 [Chlorpromazine hydrochloride] | 0.981
OC(CCCN1CCCCC1)(c1ccccc1)c1ccccc1 [Diphenidol hydrochloride] | 1

## Task Record request: growth AUC normalised to DMSO control value, item CN1CCCN=C1/C=C/c1cccc(O)c1 [Oxantel pamoate]
## Result 0.916

## Task Record request: growth AUC normalised to DMSO control value, item CO[C@@]1(NC(=O)CSCC#N)C(=O)N2C(C(=O)O)=C(CSc3nnnn3C)CS[C@@H]21 [Cefmetazole sodium salt]
## Result 0.0246

## Task Record request: growth AUC normalised to DMSO control value, item Cc1cc(-c2ccccc2)nnc1NCCN1CCOCC1 [Minaprine dihydrochloride]
## Result 0.991

## Task Record request: growth AUC normalised to DMSO control value, item CCC1(c2cccc(O)c2)CCCCN(C)C1 (stereo not given) [Meptazinol hydrochloride]
## Result 0.961

## Task Record request: growth AUC normalised to DMSO control value, item N/C(=N\C(=O)c1nc(Cl)c(N)nc1N)NCc1ccccc1 [Benzamil hydrochloride]
## Result 0.991

## Task Record request: growth AUC normalised to DMSO control value, item "Nc1ccn([C@@H]2O[C@H](CO)[C@@H](O)C2(F)F)c(=O)n1"
## Result 1.1

## Task Record request: growth AUC normalised to DMSO control value, item NC(=O)c1cccnc1 [Nicotinamide]
## Result 1.04

## Task Record request: growth AUC normalised to DMSO control value, item "Cc1cccn2c(=O)c(-c3nnn[nH]3)cnc12"
## Result 0.933

## Task Record request: growth AUC normalised to DMSO control value, item "C[C@]12CC[C@H]3[C@@H](CCC4=CC(=O)CC[C@@]43C)[C@@H]1CC[C@@H]2C(=O)CO"
## Result 1.04

## Task Record request: growth AUC normalised to DMSO control value, item N=C(N)NCC1COC2(CCCCC2)O1 (stereo not given) [Guanadrel sulfate]
## Result 0.967

## Task Record request: growth AUC normalised to DMSO control value, item CC(N)C12CC3CC(CC(C3)C1)C2 (stereo not given) [Rimantadine hydrochloride]
## Result 0.933

## Task Record request: growth AUC normalised to DMSO control value, item CN1CCC(=C2c3ccccc3C=Cc3ccccc32)CC1 [Cyproheptadine hydrochloride]
## Result 0.921

## Task Record request: growth AUC normalised to DMSO control value, item CC(C)(C)NCC(O)COc1cccc2c1CC(O)C(O)C2 (stereo not given)
## Result 1

## Task Record request: growth AUC normalised to DMSO control value, item "C[C@@H]1CN(c2c(F)c(N)c3c(=O)c(C(=O)O)cn(C4CC4)c3c2F)C[C@H](C)N1"
## Result 0.0765

====

- Test system: P. vulgatus WT;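 also: active when median AUC fell below 0.1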
- experimental details: growth AUC normalised to DMSO control (median) (fraction of control); higher = less growth inhibition, active = hit call of the paper
- condition label: 20 µM
Response enum: YES (active), NO (inactive)

O=[N+]([O-])O[C@@H]1CO[C@H]2[C@@H]1OC[C@@H]2O [Isosorbide mononitrate] | NO
CC[C@@H](C(=O)[C@@H](C)[C@@H](O)[C@H](C)[C@@H]1O[C@@H]([C@@H](CC)C(=O)O)CC[C@@H]1C)[C@H]1O[C@]2(C=C[C@@H](O)[C@]3(CC[C@@](C)([C@H]4CC[C@](O)(CC)[C@H](C)O4)O3)O2)[C@H](C)C[C@@H]1C [Salinomycin sodium] | YES
N#Cc1nn(-c2c(Cl)cc(C(F)(F)F)cc2Cl)c(N)c1[S+]([O-])C(F)(F)F (stereo not drawn) [Fipronil] | NO
CC[C@@H](C(N)=O)N1CCCC1=O [Levetiracetam] | NO

Now for a further molecule.
## Task Hi, do you know how C[C@]12CC[C@H](O)CC1=CC[C@@H]1[C@@H]2CC[C@]2(C)C(=O)CC[C@@H]12 [Prasterone] came out in this test?
## Result NO

====

- Tested on: P. vulgatus WT;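 also: active when median AUC fell below 0.1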
- experimental details: growth AUC normalised to DMSO control (median) (fraction of control); higher = less growth inhibition, active = hit call of the paper
- condition label: 20 µM
Structures can show the parent of a compound that is named as a salt.
readout name: growth AUC normalised to DMSO control
Answer field: number only, no words.

Known growth AUC normalised to DMSO control results, listed for orientation:
CCC1(c2cccc(O)c2)CCCCN(C)C1 (stereo not given) [Meptazinol hydrochloride] | 0.982
CC(C)(C)NCC(O)c1cc(Cl)c(N)c(Cl)c1 (stereo not given) [Clenbuterol hydrochloride] | 1.01
CCC1(CC)C(=O)C=CNC1=O | 1

## Task Record request: growth AUC normalised to DMSO control value, item CN1[C@@H]2CC[C@H]1C[C@@H](OC1c3ccccc3CCc3ccccc31)C2 [Deptropine citrate]
## Result 0.945

## Task Record request: growth AUC normalised to DMSO control value, item "Fc1ccc(C(OCCN2CCN(CCCc3ccccc3)CC2)c2ccc(F)cc2)cc1"
## Result 0.966

====

- Tested on: P. vulgatus WT;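 also: active when median AUC fell below 0.1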
- experimental details: growth AUC normalised to DMSO control (median) (fraction of control); higher = less growth inhibition, active = hit call of the paper
- condition label: 20 µM
Counter-ions that a name gives are not always drawn.
Response enum: True for active, False for inactive

CN(C)[C@@H]1C(=O)C(C(N)=O)=C(O)[C@@]2(O)C(=O)C3=C(O)c4c(O)cccc4[C@@](C)(O)[C@H]3[C@H](O)[C@@H]12 [Oxytetracycline dihydrate] | True
C1CCc2nnnn2CC1 [Pentylenetetrazole] | False
CC[C@@H](CO)NC(=O)[C@@H]1C=C2c3cccc4[nH]cc(c34)C[C@H]2N(C)C1 [Methylergometrine maleate] | False
C[N+]1(C)CCOC(O)(c2ccc(-c3ccc(C4(O)C[N+](C)(C)CCO4)cc3)cc2)C1 (stereo not drawn) [Hemicholinium bromide] | False
CCNCC(O)c1cccc(O)c1 (stereo not drawn) [Etilefrine hydrochloride] | False
NC(=O)CN1CCCC1=O [Piracetam] | False
O=c1[nH]c2ccccc2n1CCCN1CCC(n2c(=O)[nH]c3cc(Cl)ccc32)CC1 [Domperidone] | False

Now for a further compound.
## Task Hi, do you know how NCC(CC(=O)O)c1ccc(Cl)cc1 (stereo not drawn) [Baclofen] came out in this test?
## Result False

====

- Test system: Haemophilus parainfluenzae
- experimental details: growth AUC normalised to DMSO control (fraction of control); higher = less growth inhibition, active = hit call of the paper
- condition label: 20 µM
Where a name gives a salt, the structure may show the parent alone.
readout name: growth AUC normalised to DMSO control

Known growth AUC normalised to DMSO control results, listed for orientation:
CC(C)CC(N(C)C)C1(c2ccc(Cl)cc2)CCC1 (centres undefined) [Sibutramine hydrochloride] | 0.969 (inactive)
c1ccc2[nH]c(-c3cscn3)nc2c1 | 1.06 (inactive)
CN(C)CCOC(=O)C(c1ccccc1)C1(O)CCCC1 (centres undefined) [Cyclopentolate hydrochloride] | 1.04 (inactive)
CCCCCCCN(CC)CCCC(O)c1ccc(NS(C)(=O)=O)cc1 (centres undefined) [Ibutilide fumarate] | 0.938 (inactive)
CN(C)C(=N)NC(=N)N [Metformin hydrochloride] | 1.03 (inactive)
C[C@]12CCC(=O)C=C1C=C[C@@H]1[C@@H]2CC[C@@]2(C)[C@H]1CC[C@@]2(O)CCC(=O)O [Canrenoic acid potassium salt] | 0.979 (inactive)
NS(=O)(=O)c1cc(C(=O)O)cc(N2CCCC2)c1Oc1ccccc1 [Piretanide] | 1.06 (inactive)
CCOc1nc2cccc(C(=O)O)c2n1Cc1ccc(-c2ccccc2-c2nnn[nH]2)cc1 | 1.05 (inactive)

## Task Record request: growth AUC normalised to DMSO control value, item "O=c1oc2ccccc2c(O)c1Cc1c(O)c2ccccc2oc1=O"
## Result 1.31 (inactive)

====

- System: Yersinia pseudotuberculosis
- experimental details: growth AUC normalised to DMSO control (fraction of control); higher = less growth inhibition, active = hit call of the paper
- condition label: 20 µM
Where a name gives a salt, the structure may show the parent alone.
growth AUC normalised to DMSO control reference

## Task Give growth AUC normalised to DMSO control (Yersinia pseudotuberculosis) of the following molecule: C=C1CC[C@@]2(O)[C@H]3Cc4ccc(O)c5c4[C@@]2(CCN3CC2CC2)[C@H]1O5 [Nalmefene hydrochloride]
## Result 1.03 (inactive)

## Task Give growth AUC normalised to DMSO control (Yersinia pseudotuberculosis) of the following molecule: CC(C)[N+](C)(CCC(C(N)=O)(c1ccccc1)c1ccccc1)C(C)C [Isopropamide iodide]
## Result 0.991 (inactive)

## Task Give growth AUC normalised to DMSO control (Yersinia pseudotuberculosis) of the following molecule: C[C@]12CC[C@H](O)C[C@@H]1CC[C@@H]1[C@@H]2CC[C@]2(C)C(=O)CC[C@@H]12 [Epiandrosterone]
## Result 0.997 (inactive)

## Task Give growth AUC normalised to DMSO control (Yersinia pseudotuberculosis) of the following molecule: CC(=O)O[C@H]1C[C@@H]2CC[C@@H]3[C@H](CC[C@@]4(C)[C@H]3C[C@H]([N+]3(C)CCCCC3)[C@@H]4OC(C)=O)[C@@]2(C)C[C@@H]1[N+]1(C)CCCCC1 [Pancuronium bromide]
## Result 1 (inactive)

## Task Give growth AUC normalised to DMSO control (Yersinia pseudotuberculosis) of the following molecule: NCC(CC(=O)O)c1ccc(Cl)cc1 (centres undefined)
## Result 0.992 (inactive)
